Target: T1, prefusion Hendra virus (HeV) F protein (Hendra virus, reference strain …)
T1 chain: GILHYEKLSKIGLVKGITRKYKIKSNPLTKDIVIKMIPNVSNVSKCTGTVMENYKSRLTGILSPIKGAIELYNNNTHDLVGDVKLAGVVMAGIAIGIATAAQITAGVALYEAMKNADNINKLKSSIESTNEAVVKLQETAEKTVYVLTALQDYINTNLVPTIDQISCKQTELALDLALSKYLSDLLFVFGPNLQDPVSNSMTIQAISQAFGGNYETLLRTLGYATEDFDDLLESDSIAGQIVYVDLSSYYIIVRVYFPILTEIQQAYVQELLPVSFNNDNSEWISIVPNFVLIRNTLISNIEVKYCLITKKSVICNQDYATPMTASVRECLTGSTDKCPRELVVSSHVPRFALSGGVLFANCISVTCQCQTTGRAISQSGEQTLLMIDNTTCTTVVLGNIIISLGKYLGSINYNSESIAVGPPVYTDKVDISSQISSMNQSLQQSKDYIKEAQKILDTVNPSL
Assay: BLI
Conditions: both partners purified
ASSAY_ENDPOINT: binding result

BINDER	ASSAY_ENDPOINT	DATA_VALUE
Fab 4F6 (Fab, V domains shown) VH: QVQLQQSGAELVKPGASVKLSCKASGYTFTSNWMHWVKQRPGRGLEWIGRIDPNSGGTKYNEKFKSKATLTVDKPSSTAYMQLSSLTSEDSAVYYCARDGHYAYFDVWAPGTTVTVSS VL: DIVMTQSQKFMSTSVGDRVSVTCKASQNVGTTVAWYQQKPGQSPNALIYSASYRYTGVPDRFTGSGSGTDFTLTISNVQSEDLAEYFCQQYNRYPWTFGGGTKLEIK	binding result	binds
Fab 1H1 (Fab, V domains shown) VH: VQLQQSGAELMRPGASMKISCKATGYTFSSYWIDWVKQRPGHGLEWIGEILPGSGDTNYNENFKGKAAFTADTSSNTAYMQLTSLTSEDSAVFYCARGGRYHGQGFFDYWGQGTTLTVSS VL: IQMTQSPASLSASVGETVTITCRPSENVHIYLAWYQQKQGKSPQLLVYNAKTLADGVPSRFSGSASGTQFSLKINSLQPEDFGSYYCQHFWSIPYTFGGGTKLEIK	binding result	binds
Fab 1F2 (Fab, V domains shown) VH: EVQLQQSGPELVKPGVSLKISCKASGYSFTDYTMNWVKQSHGKNLEWIGLINPYIGGTRYNQKFKGKATLTVDKSSSTAYLELLSLTSEDSAVYYCARFSGSSNRAMDYWGQGTSVTVSS VL: DIQMTQSPASLSASVGETVTITCGASENIYGALNWYQRKQGKSPQLLIYGATNLADGMSSRFSGSGSARQYSLKISSLHPDDVATYYCQNVLSIPWTFGGGTKLEIK	binding result	binds
